Entry source: paper PMC7158045

- TARGET_DESC: ZmDRIK1-R187-P492 (Zea mays)
- Construct: kinase domain, R187-P492
- Sequence (C0P4K9 1-514): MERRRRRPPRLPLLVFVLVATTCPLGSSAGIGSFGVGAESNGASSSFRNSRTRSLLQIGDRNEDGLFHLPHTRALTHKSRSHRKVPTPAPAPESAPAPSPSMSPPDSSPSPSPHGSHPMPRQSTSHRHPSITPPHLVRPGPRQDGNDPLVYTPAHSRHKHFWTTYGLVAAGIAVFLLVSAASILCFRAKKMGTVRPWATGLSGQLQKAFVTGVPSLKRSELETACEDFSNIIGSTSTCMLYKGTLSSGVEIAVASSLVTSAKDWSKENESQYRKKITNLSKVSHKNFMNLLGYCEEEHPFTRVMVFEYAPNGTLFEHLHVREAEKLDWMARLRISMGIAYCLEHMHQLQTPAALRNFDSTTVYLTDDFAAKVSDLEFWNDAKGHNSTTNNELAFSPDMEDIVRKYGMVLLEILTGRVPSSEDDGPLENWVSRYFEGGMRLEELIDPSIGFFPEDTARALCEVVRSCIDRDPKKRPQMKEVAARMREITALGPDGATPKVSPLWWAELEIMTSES
- PROTOCOL_NOTES: biochemical
- EXPERIMENTAL_PARAMETERS: read-out: dTm B, DSF, Boltzmann fit, 0.1% DMSO
Counter-ions that a name gives are not always drawn.
RESULT_TYPE: ΔTm at 10 µM (°C)

| COMPOUND | TARGET_DESC | SCALE_UNIT | ΔTm at 10 µM |
| --- | --- | --- | --- |
| Cn1cc(C2=C(c3cn(CCCSC(=N)N)c4ccccc34)C(=O)NC2=O)c2ccccc21 [Ro 31-8220 Mesylate] | ZmDRIK1-R187-P492 (Zea mays) | °C | -0.197 |
| O=C1c2ccc(Nc3ccc(F)cc3F)cc2CCc2ccc(OC[C@H](O)CO)cc21 [Skepinone-L] | ZmDRIK1-R187-P492 (Zea mays) | °C | -0.481 |

(P) CS(=O)(=O)N1CCc2c(-c3cnc(N)nc3)nc(N3CCOCC3)nc21 [CH5132799]
(Q) C=CC(=O)Nc1cccc(Nc2nc(Nc3ccc(OCCOC)cc3)ncc2F)c1 [AVL-292]
Problem: Lower ΔTm at 10 µM: P or Q ? Let me know the label of the one you choose.
Result: P
(P: -0.223 °C, Q: 1.32 °C)
